target: recombinant guanylate cyclase reporter cell line (Rattus norvegicus, UniProt P19686+P20595)
Construct: expressed in transfected cells
Sequence (P20595 whole entry): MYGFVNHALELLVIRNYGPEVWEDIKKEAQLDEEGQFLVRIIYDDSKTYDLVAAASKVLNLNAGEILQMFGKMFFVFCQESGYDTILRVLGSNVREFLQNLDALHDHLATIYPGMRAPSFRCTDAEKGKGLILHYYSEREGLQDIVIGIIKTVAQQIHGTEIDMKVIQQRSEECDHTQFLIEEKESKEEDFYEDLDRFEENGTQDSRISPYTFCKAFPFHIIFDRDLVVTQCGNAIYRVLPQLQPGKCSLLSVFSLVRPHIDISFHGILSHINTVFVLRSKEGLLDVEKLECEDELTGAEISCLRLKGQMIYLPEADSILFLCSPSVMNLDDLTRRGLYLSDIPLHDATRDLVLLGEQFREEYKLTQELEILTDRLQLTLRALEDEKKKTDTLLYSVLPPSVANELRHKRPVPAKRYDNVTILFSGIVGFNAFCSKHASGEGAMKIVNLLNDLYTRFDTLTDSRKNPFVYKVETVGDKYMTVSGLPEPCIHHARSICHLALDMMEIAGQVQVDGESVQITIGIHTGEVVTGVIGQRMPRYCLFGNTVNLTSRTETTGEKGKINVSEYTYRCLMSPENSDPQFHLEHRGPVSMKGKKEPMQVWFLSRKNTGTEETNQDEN
Sequence (P19686 whole entry): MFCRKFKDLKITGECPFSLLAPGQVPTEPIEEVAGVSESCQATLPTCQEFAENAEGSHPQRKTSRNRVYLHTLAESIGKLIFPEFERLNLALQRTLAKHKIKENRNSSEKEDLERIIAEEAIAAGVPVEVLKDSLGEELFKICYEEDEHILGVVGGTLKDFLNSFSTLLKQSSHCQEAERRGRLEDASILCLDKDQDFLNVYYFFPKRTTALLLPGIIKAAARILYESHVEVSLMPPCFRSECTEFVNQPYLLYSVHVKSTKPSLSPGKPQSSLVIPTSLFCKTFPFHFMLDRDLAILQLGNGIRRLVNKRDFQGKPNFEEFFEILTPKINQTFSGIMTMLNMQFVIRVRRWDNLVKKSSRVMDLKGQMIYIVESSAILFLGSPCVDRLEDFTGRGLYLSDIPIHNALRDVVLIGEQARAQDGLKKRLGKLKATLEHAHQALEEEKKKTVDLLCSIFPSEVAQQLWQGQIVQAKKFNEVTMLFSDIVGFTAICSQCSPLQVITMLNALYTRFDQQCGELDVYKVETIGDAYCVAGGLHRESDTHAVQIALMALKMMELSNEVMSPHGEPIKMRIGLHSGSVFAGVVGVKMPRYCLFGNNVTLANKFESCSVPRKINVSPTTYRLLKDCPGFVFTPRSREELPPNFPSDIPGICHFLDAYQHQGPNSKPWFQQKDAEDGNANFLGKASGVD
testMethodNotes: Action on recombinant guanylate cyclase reporter cell line
Format: cell-based
Listed below: MEC (minimal effective concentration) values for each entry.

# compound, MEC (minimal effective concentration) / μm
measured = [
    ("CC1(C)C(=O)Nc2nc(-c3nn(Cc4ncccc4F)c4ncc(F)cc34)nc(NCC(F)(F)F)c21 [Example 16]", 0.1),
    ("CC1(C)C(=O)Nc2nc(-c3nn(Cc4ccccc4F)c4ncccc34)nc(NC3CCOC3)c21 (racemic) [Example 49]", 0.3),
    ("CC(=O)NCCNc1nc(-c2nn(Cc3ccccc3F)c3ncccc23)nc2c1C(C)(C)C(=O)N2 [Example 44]", 0.1),
    ("CC1(C)C(=O)Nc2nc(-n3nc(Cc4ccccc4F)c4ccccc43)nc(NCCC(F)(F)F)c21 [Example 35]", 0.3),
    ("CC1(C)C(=O)Nc2nc(-n3nc(Cc4ccccc4F)c4cc(F)ccc43)nc(NCC3CC3)c21 [Example 38]", 0.3),
    ("CC1(C)CCN(c2nc(-c3nn(Cc4ccccc4F)c4ncccc34)nc3c2C(C)(C)C(=O)N3)CC1 [Example 68]", 0.1),
    ("CC1(C)C(=O)Nc2nc(-c3nn(Cc4ccccc4F)c4ncccc34)nc(O)c21 [Example 109]", 0.03),
    ("CC1(C)C(=O)Nc2nc(-c3nn(Cc4ccccc4F)c4ncccc34)nc(Oc3cn[nH]c3)c21 [Example 27]", 0.1),
    ("CC1(C)C(=O)Nc2nc(-c3nn(Cc4ccccc4F)c4ncc(F)cc34)nc(NCC3CC3(F)F)c21 (stereo not drawn) [Example 97]", 0.1),
    ("CC1(C)C(=O)Nc2nc(-c3nn(Cc4ccccc4F)c4ncc(F)cc34)nc(NCC(F)F)c21 [Example 7]", 0.1),
    ("CC1(C)C(=O)Nc2nc(-c3nn(Cc4ccccc4F)c4ncccc34)nc(N3CC(N4CCCC4)C3)c21 [Example 105]", 0.3),
    ("CC1(C)C(=O)Nc2nc(-c3nn(Cc4ccccc4F)c4ncccc34)nc(N[C@H]3CC[C@H](O)CC3)c21 [Example 95]", 0.1),
    ("CC1(C)C(=O)Nc2nc(-c3nn(Cc4ccccc4F)c4ncc(F)cc34)nc(N3CC(O)C3)c21 [Example 104]", 0.1),
    ("CC1(C)C(=O)Nc2nc(-c3nn(Cc4ccccc4F)c4ncccc34)nc(N3CCOCC3)c21 [Example 72]", 0.1),
    ("CC1(C)C(=O)Nc2nc(-c3nn(Cc4ccccc4F)c4ncccc34)nc(-n3ccc(C(F)(F)F)n3)c21 [Example 30]", 1.0),
]

----------
pIC50: −log10 of the molar value.
As an illustration, consider measured pIC50 for compounds on human phosphodiesterase 5 (PDE-5) (Homo sapiens, UniProt O76074).
reportedProperty: pIC50

# compound, recordedResult
rows = [
    ("CC1(C)C(=O)Nc2nc(-c3nn(Cc4ccccc4F)c4ncc(F)cc34)nc(NCC3CC3)c21", 7.28),
    ("CCN1CCN(c2nc(-c3nn(Cc4ccccc4F)c4ncccc34)nc3c2C(C)(C)C(=O)N3)C1=O", 6.40),
    ("CC1(C)C(=O)Nc2nc(-c3nn(Cc4ccccc4F)c4ncccc34)nc(Nc3cccnc3)c21", 6.37),
    ("CC(=O)NC1CCN(c2nc(-c3nn(Cc4ccccc4F)c4ncccc34)nc3c2C(C)(C)C(=O)N3)C1 (stereo not drawn)", 6.85),
    ("CC1(C)C(=O)Nc2nc(-c3nn(Cc4ccccc4F)c4ncc(F)cc34)nc(NCC3CC3(C)C)c21 (stereo not drawn)", 6.36),
    ("CC1(C)C(=O)Nc2nc(-c3nn(Cc4ccccc4F)c4ncccc34)nc(N3CC(C(F)(F)F)CC3=O)c21 (stereo not drawn)", 6.49),
    ("CC1(C)C(=O)Nc2nc(-c3nn(Cc4ccccc4F)c4ncc(F)cc34)nc(NCC(O)C(F)(F)F)c21 (single isomer, unassigned)", 6.82),
    ("CC1(C)C(=O)Nc2nc(-c3nn(Cc4ccccc4F)c4ncccc34)nc(NCc3cccc(F)c3)c21", 6.48),
    ("Cc1nc2c(cc1F)c(-c1nc(NCCC(F)(F)F)c3c(n1)NC(=O)C3(C)C)nn2Cc1ccccc1F", 6.64),
]
